system: dog SMAD7 mRNA; test: Pharmacology: dog SMAD7 mRNA expression in liver, kidney, duodenum, ileum and colon after subcutaneous administration in beagle dogs (Example 8); assay type: in vivo; conditions: 30 mg/kg subcutaneous, necropsy, ileum, normalized to HPRT1
# reported % inhibition of SMAD7 mRNA expression (compared to control), Ileum; entries follow
Just the number in %, nothing appended.

Here's what some known entries look like.
1. 830121 (AGAATCAAGCCCTGGC; 3-10-3 cEt gapmer, further chemistry not given here) [compound 830121] = 0
2. 790615 (CCAATGAGAATGCTTC; 3-10-3 cEt gapmer, further chemistry not given here) [compound 790615] = 0
3. 830025 (antisense TTTGTAAATCGAAAGC; 3-10-3 cEt gapmer, further chemistry not given here) [compound 830025] = 9
4. 829994 (GGAGGCAGGGCCGCGA; 3-10-3 cEt gapmer, further chemistry not given here) [compound 829994] = 32
5. 798781 (CGTAAGATTCACAGCA; 3-10-3 cEt gapmer, further chemistry not given here) [compound 798781] = 0

Kindly consider the entry below.
Q: Given the substance 830037 (antisense CTATTGGCTGATCTGG; 3-10-3 cEt gapmer, further chemistry not given here) [compound 830037] , what is its reported % inhibition of SMAD7 mRNA expression (compared to control), Ileum?
Ans: 22
